Source of measurements: patent US8921376B2

- tgt: ROCK I (Homo sapiens, UniProt Q13464)
- Sequence (Q13464 whole entry): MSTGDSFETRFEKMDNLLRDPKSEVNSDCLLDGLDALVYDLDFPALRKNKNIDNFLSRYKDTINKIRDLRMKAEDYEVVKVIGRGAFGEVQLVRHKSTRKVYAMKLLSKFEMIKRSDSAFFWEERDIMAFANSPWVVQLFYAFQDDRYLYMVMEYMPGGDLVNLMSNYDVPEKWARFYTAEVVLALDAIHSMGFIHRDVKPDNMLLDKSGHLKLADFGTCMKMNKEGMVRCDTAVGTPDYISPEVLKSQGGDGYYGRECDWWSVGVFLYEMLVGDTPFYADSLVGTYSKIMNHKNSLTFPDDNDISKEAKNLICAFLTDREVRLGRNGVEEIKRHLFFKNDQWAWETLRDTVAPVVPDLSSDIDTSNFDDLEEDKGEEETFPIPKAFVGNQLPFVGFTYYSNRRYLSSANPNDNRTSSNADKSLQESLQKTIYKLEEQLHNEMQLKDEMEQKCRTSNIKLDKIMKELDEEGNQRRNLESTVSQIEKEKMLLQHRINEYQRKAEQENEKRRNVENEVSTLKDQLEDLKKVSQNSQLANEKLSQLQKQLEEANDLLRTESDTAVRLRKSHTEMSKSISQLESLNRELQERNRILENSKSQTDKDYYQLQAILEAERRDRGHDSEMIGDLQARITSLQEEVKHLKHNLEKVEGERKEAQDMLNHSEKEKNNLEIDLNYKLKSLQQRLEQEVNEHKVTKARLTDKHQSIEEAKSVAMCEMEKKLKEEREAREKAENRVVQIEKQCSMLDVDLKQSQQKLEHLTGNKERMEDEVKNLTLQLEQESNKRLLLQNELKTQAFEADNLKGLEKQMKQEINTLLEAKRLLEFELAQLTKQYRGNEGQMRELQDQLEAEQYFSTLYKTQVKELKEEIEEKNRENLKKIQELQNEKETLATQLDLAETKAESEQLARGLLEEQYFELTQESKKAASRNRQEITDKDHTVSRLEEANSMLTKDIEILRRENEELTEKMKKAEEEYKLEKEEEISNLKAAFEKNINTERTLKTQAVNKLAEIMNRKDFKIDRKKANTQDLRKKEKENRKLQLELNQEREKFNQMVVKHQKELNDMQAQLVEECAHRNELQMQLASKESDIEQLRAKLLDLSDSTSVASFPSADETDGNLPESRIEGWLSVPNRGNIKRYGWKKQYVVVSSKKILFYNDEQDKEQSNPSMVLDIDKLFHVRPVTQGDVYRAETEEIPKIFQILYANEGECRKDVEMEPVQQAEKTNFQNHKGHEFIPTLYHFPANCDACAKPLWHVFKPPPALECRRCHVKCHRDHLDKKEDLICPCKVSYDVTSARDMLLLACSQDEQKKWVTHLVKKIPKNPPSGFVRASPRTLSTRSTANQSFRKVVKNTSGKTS
- assay_info: ROCK-I inhibition assay (radioactive enzyme assay, MBP substrate)
- Type: biochemical
- test_parameters: enzyme inhibition, Ki(app), Table 5
pKi: −log10 of the molar value.
observed_property: pKi

Param item: `CC(C)(C(=O)O)c1cccc(-c2ccnc3[nH]ccc23)n1` ; param system: ROCK I (Homo sapiens, UniProt Q13464); output pKi: 5.30 to 6.30

Param item: `CC(=O)N1CCCN(c2cccc(-c3ccnc4[nH]ccc34)n2)CC1` ; param system: ROCK I (Homo sapiens, UniProt Q13464); output pKi: 5.30 to 6.30

Param item: `Cn1cc(-c2c(Cl)cnc3[nH]ccc23)cn1` ; param system: ROCK I (Homo sapiens, UniProt Q13464); output pKi: 5.30 to 6.30

Param item: `CN(C)c1cccc(-c2ccnc3[nH]ccc23)c1` ; param system: ROCK I (Homo sapiens, UniProt Q13464); output pKi: > 6.30

Param item: C1=C(c2ccnc3[nH]ccc23)CCCC1 [compound 30, 4-Cyclohexenyl-1H-pyrrolo[2,3b]pyridine] ; param system: ROCK I (Homo sapiens, UniProt Q13464); output pKi: > 6.30

Param item: `C[C@H](Nc1ccnc(-c2ccnc3[nH]ccc23)n1)C(=O)NCC(F)(F)F` ; param system: ROCK I (Homo sapiens, UniProt Q13464); output pKi: 5.30 to 6.30

Param item: O=C(NCC1CCCO1)c1ccc(-c2ccnc3[nH]ccc23)s1 (stereo not shown) ; param system: ROCK I (Homo sapiens, UniProt Q13464); output pKi: > 6.30

Param item: CC(C)C(CO)NC(=O)c1ccc(-c2ccnc3[nH]ccc23)s1 (stereo not shown) ; param system: ROCK I (Homo sapiens, UniProt Q13464); output pKi: > 6.30

Param item: `CC(C)CNc1cccc(-c2c(Cl)cnc3[nH]ccc23)n1` ; param system: ROCK I (Homo sapiens, UniProt Q13464); output pKi: 5.30 to 6.30

Param item: `CN(Cc1cccnc1)c1cccc(-c2ccnc3[nH]ccc23)n1` ; param system: ROCK I (Homo sapiens, UniProt Q13464); output pKi: 5.30 to 6.30

Param item: `CC(C)Oc1ccc(-c2ccnc3[nH]ccc23)cc1` ; param system: ROCK I (Homo sapiens, UniProt Q13464); output pKi: > 6.30

Param item: `CN(C)CCN(C)c1cccc(-c2c(Cl)cnc3[nH]ccc23)n1` ; param system: ROCK I (Homo sapiens, UniProt Q13464); output pKi: 5.30 to 6.30

Param item: c1cc(NCC2CCCO2)nc(-c2ccnc3[nH]ccc23)c1 (stereo not shown) ; param system: ROCK I (Homo sapiens, UniProt Q13464); output pKi: 5.30 to 6.30

Param item: CN1CCCC1CCNc1cccc(-c2ccnc3[nH]ccc23)n1 (stereo not shown) ; param system: ROCK I (Homo sapiens, UniProt Q13464); output pKi: 5.30 to 6.30

Param item: CC1CCCN(c2cccc(-c3ccnc4[nH]ccc34)n2)C1 (stereo not shown) ; param system: ROCK I (Homo sapiens, UniProt Q13464); output pKi: > 6.30

Param item: `CN1CCN(Cc2cccc(-c3ccnc4[nH]ccc34)c2)CC1` ; param system: ROCK I (Homo sapiens, UniProt Q13464); output pKi: 5.30 to 6.30

Param item: `N#CCC(=O)N1CCCN(c2cccc(-c3ccnc4[nH]ccc34)n2)CC1` ; param system: ROCK I (Homo sapiens, UniProt Q13464); output pKi: 5.30 to 6.30

Param item: `Clc1cnc2[nH]ccc2c1NC1CCCCC1` ; param system: ROCK I (Homo sapiens, UniProt Q13464); output pKi: > 6.30

Param item: `Clc1ccccc1CCNc1cccc(-c2c(Cl)cnc3[nH]ccc23)n1` ; param system: ROCK I (Homo sapiens, UniProt Q13464); output pKi: 5.30 to 6.30
